This collection of values is drawn from ChEMBL document CHEMBL5724796.

- target-entity: Peregrin (Homo sapiens)
- stated-conditions: Compound concentration 20.0 uM
Residues, ends and D or L forms follow the SMILES beside them.
measured-parameter: ΔTm (°C)
Provide only the numeric value, understood in °C.

CC(C)(C)NS(=O)(=O)c1cccc2c(NC(=O)[C@H](Cc3ccccc3)NC(=O)C3CCCCC3)cccc12	0.28

// returns reported ΔTm for input Cc1c(F)c(N)cc(C(=O)Nc2cc(-n3cc(C(=O)NCCCN4CCOCC4)nn3)ccc2N2CCN(C)CC2)c1Cl
-0.29

// returns reported ΔTm for input CC(=O)N[C@H](C(=O)N[C@@H](CC(=O)O)C(=O)N[C@H](C(=O)N[C@@H](C)C(=O)N[C@H](C=O)CC(=O)O)C(C)C)C(C)C (Ac-VDVAD-aldehyde)
-0.92

// returns reported ΔTm for input CCc1nc2c(C)cc(N3CCN(CC(=O)N4CC(O)C4)CC3)cn2c1N(C)c1nc(-c2ccc(F)cc2)c(C#N)s1
-0.12

// returns reported ΔTm for input Cc1cc2cc(NS(=O)(=O)c3ccc(C#N)cc3)ccc2n(C)c1=O
8.89

// returns reported ΔTm for input COc1ccc(N2CCN(C(=O)c3cc4c(s3)-c3ccccc3S(=O)(=O)C4)CC2)cc1
0

// returns reported ΔTm for input CC(C)Cn1c(=O)n(C)c(=O)c2c(C(=O)N3CC[C@@H](O)C3)c(Cc3ccnc4ccccc34)sc21
0.74

// returns reported ΔTm for input C[C@@H](COCCC(=O)N1CCN(c2ncc(C(F)(F)F)cn2)CC1)Nc1cn[nH]c(=O)c1C(F)(F)F
0.01

----------
- target-entity: Fibroblast growth factor receptor 2 (Homo sapiens) (UniProt P21802)
- Sequence (P21802 22-821 limits assumed): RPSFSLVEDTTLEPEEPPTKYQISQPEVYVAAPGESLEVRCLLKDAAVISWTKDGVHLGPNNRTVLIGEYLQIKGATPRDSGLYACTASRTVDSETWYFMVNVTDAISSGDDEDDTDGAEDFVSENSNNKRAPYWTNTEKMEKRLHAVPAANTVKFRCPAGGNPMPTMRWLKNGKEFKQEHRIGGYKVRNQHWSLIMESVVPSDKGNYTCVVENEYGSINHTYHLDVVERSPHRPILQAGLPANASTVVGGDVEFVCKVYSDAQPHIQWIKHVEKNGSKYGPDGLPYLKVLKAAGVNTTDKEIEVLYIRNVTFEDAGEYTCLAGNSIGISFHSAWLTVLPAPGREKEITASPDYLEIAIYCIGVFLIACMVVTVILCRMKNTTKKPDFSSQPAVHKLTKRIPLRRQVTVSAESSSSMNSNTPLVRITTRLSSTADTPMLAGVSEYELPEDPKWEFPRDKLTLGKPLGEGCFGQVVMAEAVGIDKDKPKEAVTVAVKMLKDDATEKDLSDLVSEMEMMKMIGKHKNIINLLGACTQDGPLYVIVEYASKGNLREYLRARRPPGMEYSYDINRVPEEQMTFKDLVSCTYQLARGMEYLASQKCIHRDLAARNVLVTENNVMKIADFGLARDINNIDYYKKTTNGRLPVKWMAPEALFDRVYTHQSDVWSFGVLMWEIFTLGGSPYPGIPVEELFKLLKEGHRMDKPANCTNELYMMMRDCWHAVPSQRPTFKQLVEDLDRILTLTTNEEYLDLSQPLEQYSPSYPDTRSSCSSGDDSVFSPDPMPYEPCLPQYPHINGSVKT
- stated-conditions: Compound concentration 20.0 uM
- Description: Thermal Shift Assay. Domain: start/stop: T457-E768
measured-parameter: ΔTm (°C)
Provide only the numeric value, understood in °C.

O=C(c1cc(Cc2n[nH]c(=O)c3ccccc23)ccc1F)N1CC(CNC2CC2)C1	-0.3
Cc1cc(/N=N/c2ccc(S(=O)(=O)Nc3ccccn3)cc2)c(N)cc1O	0.17
CCS(=O)(=O)N1CCC([C@@H](C)n2c(C)c(C(=O)NCc3c(OC)cc(C)[nH]c3=O)c3ccccc32)CC1	0.02

// returns reported ΔTm for input CN1C(=O)c2c(nn(Cc3ccc(-c4cccc(F)n4)cc3)c2Nc2ccccc2)N2C1=N[C@@H]1CCC[C@@H]12
-0.21

// returns reported ΔTm for input CC(=O)Nc1ccc(OC[C@](C)(O)C(=O)Nc2ccc([N+](=O)[O-])c(C(F)(F)F)c2)cc1
2.59

// returns reported ΔTm for input CCCCCCNC(=O)n1cc(F)c(=O)[nH]c1=O
0.03

----------
- target-entity: Peregrin (Homo sapiens)
- Sequence (whole entry): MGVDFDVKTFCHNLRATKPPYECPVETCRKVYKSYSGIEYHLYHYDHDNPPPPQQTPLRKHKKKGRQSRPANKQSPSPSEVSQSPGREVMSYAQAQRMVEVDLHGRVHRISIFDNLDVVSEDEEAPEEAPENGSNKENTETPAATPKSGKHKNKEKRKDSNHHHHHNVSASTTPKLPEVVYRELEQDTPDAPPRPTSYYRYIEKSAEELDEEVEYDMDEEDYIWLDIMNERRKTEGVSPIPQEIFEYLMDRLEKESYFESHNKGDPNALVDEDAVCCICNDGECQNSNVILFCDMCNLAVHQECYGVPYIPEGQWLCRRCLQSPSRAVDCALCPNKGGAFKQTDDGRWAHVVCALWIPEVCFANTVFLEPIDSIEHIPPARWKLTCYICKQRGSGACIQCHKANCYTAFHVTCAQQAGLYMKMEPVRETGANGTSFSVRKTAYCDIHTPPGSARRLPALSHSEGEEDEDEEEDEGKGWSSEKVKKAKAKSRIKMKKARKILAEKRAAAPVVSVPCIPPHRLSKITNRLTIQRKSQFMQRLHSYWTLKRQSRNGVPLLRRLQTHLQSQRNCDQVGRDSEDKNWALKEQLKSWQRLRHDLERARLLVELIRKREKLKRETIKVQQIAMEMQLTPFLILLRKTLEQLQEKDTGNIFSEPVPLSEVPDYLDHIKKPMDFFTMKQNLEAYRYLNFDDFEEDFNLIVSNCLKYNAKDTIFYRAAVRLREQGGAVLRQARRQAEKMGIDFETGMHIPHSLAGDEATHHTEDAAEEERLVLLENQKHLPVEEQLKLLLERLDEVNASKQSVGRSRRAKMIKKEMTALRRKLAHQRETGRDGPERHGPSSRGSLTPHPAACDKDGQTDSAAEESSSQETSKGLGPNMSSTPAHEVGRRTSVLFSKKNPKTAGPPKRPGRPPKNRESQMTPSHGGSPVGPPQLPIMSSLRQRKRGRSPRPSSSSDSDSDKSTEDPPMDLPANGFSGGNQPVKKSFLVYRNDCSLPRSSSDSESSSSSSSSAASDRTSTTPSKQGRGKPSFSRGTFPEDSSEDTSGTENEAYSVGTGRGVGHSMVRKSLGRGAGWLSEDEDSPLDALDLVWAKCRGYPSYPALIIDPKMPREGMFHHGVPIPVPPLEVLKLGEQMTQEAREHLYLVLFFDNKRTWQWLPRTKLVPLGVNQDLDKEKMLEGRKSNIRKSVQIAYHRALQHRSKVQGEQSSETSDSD
- stated-conditions: Compound concentration 20.0 uM
Residues, ends and D or L forms follow the SMILES beside them. *: point of attachment. Boc = CC(C)(C)OC(=O)*
Measured ΔTm of individual entries
Provide only the numeric value, understood in °C.

Record excerpt, results attached:
CC(C)(C)OC(=O)N1CCC[C@H]1C(=O)N1CCC[C@H]1C=O (Boc-Pro-Pro-aldehyde)	-0.14
CC(C)NCC(O)COC(Cn1c2ccccc2c2ccccc21)Cn1c2ccccc2c2ccccc21 (centres undefined)	-1.15
C[C@@H]1CN(c2nccc(Nc3ccc4c(c3)n(CCC(C)(C)O)c(=O)n4C)n2)C[C@H](C)C1(F)F	-0.49
NC(=O)c1cccc(NC(=O)CCC(=O)NCCc2cn(CCNS(=O)(=O)c3cccc(C(=O)O)c3)nn2)c1	-1.38
CC(C)(Sc1ccncc1-c1ccc(C#N)c2ccccc12)C(=O)O	0.05
CCCCN(Cc1ccc(C(=O)NO)cc1)C(=O)Nc1ccccc1	-0.92

// returns reported ΔTm for input C[C@@H](Oc1ccc(S(C)(=O)=O)cc1C(=O)N1C[C@@H]2C[C@]2(c2cc(C(F)(F)F)on2)C1)C(F)(F)F
0.16

// returns reported ΔTm for input O=C(O)CCNC(=S)NCCCC[C@H](NS(=O)(=O)c1cccc(F)c1)C(=O)N[C@@H](Cc1c[nH]c2ccccc12)C(=O)NC1CCC1
1.86

// returns reported ΔTm for input Cn1cc(NC(=O)c2cc(F)cc(F)c2)c(C(=O)NC2CCNCC2)n1
-1.44
